The measured values listed here are drawn from ChEMBL document CHEMBL3286284.

Test system: NCI-H460
experiment notes: Growth inhibition of human NCI-H460 cells
Type: functional
Threshold 3 µM: GI50 strictly smaller gives rule met, otherwise rule not met.

# mol smiles, assayed system, group label
rows = [
    ("O=C(NCc1cn(Cc2cccc(Oc3ccccc3)c2)nn1)c1cccnc1NCc1ccc(Cl)cc1", "NCI-H460", "rule met"),
    ("O=C(NCc1cn(Cc2cccc(Oc3ccccc3)c2)nn1)c1cccnc1Nc1cccc(F)c1", "NCI-H460", "rule not met"),
    ("COc1cc(Nc2ncccc2C(=O)NCc2cn(Cc3cccc(Oc4ccccc4)c3)nn2)cc(OC)c1", "NCI-H460", "rule not met"),
    ("O=C(NCc1cn(Cc2cccc(Oc3ccccc3)c2)nn1)c1cccnc1Nc1ccccc1", "NCI-H460", "rule met"),
    ("O=C(NCc1cn(Cc2cccc(Oc3ccccc3)c2)nn1)c1cccnc1Nc1ccc(F)cc1", "NCI-H460", "rule not met"),
]
